These data points were gathered from patent US20150086555A1.

Overview of reported Trimeric HA Binding: RLU across a group of binders:
target entity: recombinant soluble homotrimeric HA of A/Netherlands/219/03 (H7N7) (Influenza A virus A/Netherlands/219/03(H7N7))
measurement protocol: trimeric HA microarray, transfection supernatant set 5
setup conditions: remark: other sources report otherwise
Just the number please, in RLU, no unit attached.

**Q:** Could you share which Trimeric HA Binding: RLU value was measured for TCN-537 (3194_D21) (antibody, V domains shown) VH: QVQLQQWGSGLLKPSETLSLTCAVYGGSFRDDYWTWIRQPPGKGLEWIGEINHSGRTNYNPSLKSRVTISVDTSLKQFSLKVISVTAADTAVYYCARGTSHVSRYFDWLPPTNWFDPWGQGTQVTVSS VL: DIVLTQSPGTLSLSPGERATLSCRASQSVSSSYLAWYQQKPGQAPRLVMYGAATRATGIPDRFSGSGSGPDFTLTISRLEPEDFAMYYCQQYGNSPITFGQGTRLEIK ?
**A:** 3650

**Q:** Could you share which Trimeric HA Binding: RLU value was measured for TCN-543 (5081_G23) (antibody, V domains shown) VH: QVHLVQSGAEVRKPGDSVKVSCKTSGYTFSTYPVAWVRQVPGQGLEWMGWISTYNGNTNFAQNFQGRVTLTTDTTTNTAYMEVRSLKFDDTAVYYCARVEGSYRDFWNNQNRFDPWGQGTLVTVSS VL: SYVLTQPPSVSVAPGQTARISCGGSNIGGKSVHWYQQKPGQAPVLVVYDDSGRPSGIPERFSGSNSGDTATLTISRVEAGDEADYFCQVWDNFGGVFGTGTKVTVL ?
**A:** 12900
